TESTED ON: Neuronal acetylcholine receptor subunit alpha-7 (Rattus norvegicus)
TEST DESCRIPTION: Displacement of [125I]alpha-bungarotoxin from alpha7 nAchR in rat frontal cortices
ASSAY READOUT: pKd
Lab note: report pKd as minus log10 of the concentration in molar units, number only.

Request: Look up and report measured pKd for this entry: c1cc2cc(-c3cn(C4CN5CCC4CC5)nn3)ccc2[nH]1 (stereo unspecified)
Response: 6.92

----------
TESTED ON: Neuronal acetylcholine receptor subunit alpha-7 (Rattus norvegicus, UniProt Q05941)
Sequence (Q05941 whole entry): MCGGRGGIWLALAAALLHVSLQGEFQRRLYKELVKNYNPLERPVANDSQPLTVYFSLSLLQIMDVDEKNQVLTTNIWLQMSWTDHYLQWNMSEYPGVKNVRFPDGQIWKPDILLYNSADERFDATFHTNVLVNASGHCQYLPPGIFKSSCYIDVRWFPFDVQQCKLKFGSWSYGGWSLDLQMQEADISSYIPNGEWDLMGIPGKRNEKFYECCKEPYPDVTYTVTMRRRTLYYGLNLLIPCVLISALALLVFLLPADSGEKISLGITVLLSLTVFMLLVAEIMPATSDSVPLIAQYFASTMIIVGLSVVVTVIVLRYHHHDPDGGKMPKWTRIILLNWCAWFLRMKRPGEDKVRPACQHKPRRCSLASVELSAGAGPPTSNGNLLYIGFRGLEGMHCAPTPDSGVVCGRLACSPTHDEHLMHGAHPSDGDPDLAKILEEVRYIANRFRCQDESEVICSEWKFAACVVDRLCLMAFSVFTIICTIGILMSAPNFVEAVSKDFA
TEST DESCRIPTION: Displacement of [125I]alpha-bungarotoxin from alpha7 nAchR in rat frontal cortices
Reported Ki values for a set of molecules
Please respond with the number in nM and leave the unit unwritten.

INSERT INTO measurements (mol_smiles, observed_value) VALUES
  ('Fc1ccc(-c2cn([C@H]3CN4CCC3CC4)nn2)cc1', 15),
  ('O=C(N[C@@H]1CN2CCC1CC2)c1cc2ccoc2cn1', 1.27),
  ('COc1ccccc1-c1cn([C@H]2CN3CCC2CC3)nn1', 112),
  ('COCOCCOc1ccc(-c2cn([C@H]3CN4CCC3CC4)nn2)cc1', 225),
  ('FCc1ccc(-c2cn([C@H]3CN4CCC3CC4)nn2)cc1', 21);

Request: Answer with reported Ki of O=C(N[C@H]1CN2CCC1CC2)c1ccc(Cl)cc1
Response: 17

Request: For OCc1ccc(-c2cn([C@H]3CN4CCC3CC4)nn2)cc1 , write its Ki.
Response: 10

Request: Given c1cc(-c2cn([C@H]3CN4CCC3CC4)nn2)ccn1 , respond with its Ki.
Response: 141

----------
Property: pKi; scope: individual compounds
TESTED ON: 5-hydroxytryptamine receptor 3A (Homo sapiens, UniProt P46098)
Sequence (P46098 whole entry): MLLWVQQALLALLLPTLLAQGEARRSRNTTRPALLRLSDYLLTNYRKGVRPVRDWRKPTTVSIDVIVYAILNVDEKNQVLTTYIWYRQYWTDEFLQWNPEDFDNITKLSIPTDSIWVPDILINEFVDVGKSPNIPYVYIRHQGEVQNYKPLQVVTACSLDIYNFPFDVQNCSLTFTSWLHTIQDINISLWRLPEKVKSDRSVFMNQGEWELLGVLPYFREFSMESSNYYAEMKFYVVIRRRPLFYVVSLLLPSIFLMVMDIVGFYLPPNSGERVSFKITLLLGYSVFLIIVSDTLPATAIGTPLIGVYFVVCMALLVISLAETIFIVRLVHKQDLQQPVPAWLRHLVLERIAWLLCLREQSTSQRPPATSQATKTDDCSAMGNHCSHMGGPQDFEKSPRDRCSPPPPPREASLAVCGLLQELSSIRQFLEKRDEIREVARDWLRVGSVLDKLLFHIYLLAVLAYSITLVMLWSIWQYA
By convention, pKi is the negative base-10 log of a molar concentration.

Request: Specify measured pKi for c1cc2cc(-c3cn([C@H]4CN5CCC4CC5)nn3)ccc2o1 .
Response: 8.52

Request: For COc1cccc(-c2cn([C@H]3CN4CCC3CC4)nn2)c1 , write its pKi.
Response: 8.52

Request: Specify measured pKi for c1cc2cc(-c3cn(C4CN5CCC4CC5)nn3)ccc2[nH]1 (stereo not drawn) .
Response: 7.28

----------
TESTED ON: Neuronal acetylcholine receptor; alpha4/beta2 (Homo sapiens, UniProt P17787+P43681)
Sequence (P17787 whole entry): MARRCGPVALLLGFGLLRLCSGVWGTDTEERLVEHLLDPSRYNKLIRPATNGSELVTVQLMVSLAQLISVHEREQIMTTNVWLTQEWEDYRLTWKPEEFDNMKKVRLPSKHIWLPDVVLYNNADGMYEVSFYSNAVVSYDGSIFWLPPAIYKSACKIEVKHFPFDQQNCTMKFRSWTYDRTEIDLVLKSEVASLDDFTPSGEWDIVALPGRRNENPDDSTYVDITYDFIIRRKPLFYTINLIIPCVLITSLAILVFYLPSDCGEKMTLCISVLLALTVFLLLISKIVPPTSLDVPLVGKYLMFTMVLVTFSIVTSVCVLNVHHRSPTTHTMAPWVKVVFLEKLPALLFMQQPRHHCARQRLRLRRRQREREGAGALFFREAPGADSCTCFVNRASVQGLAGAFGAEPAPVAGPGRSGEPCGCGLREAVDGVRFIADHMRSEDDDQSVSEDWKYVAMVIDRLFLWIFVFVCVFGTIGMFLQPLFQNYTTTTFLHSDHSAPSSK
Sequence (P43681 whole entry): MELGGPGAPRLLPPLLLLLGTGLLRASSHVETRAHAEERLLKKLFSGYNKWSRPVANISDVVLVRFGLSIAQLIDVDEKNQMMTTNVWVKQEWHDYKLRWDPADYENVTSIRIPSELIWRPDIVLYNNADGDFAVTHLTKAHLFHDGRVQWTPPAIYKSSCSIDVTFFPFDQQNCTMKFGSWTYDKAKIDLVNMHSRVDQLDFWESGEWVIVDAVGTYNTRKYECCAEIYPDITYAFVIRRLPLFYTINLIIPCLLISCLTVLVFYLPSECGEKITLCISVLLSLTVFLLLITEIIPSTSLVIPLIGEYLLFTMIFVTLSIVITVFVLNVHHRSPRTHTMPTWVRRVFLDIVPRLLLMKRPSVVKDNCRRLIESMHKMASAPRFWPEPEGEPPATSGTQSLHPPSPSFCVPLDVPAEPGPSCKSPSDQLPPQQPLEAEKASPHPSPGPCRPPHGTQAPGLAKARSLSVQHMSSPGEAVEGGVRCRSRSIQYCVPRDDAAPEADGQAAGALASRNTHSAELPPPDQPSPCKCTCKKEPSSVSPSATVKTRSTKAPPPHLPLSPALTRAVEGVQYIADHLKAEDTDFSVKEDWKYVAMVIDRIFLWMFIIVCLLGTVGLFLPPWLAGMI
TEST DESCRIPTION: Displacement of [3H]cytisine from human recombinant alpha4beta2 nicotinic receptor expressed in SH-SY5Y cells after 120 mins by scintillation counting
Parameter Ki: see the listing below.
Reply numerically in µM, unit not repeated.

INSERT INTO assay_data (compound, assay_readout, observed_value) VALUES
  ('c1cc2cc(-c3cn(C4CN5CCC4CC5)nn3)ccc2[nH]1 (stereo not drawn)', 'Ki', 0.75),
  ('c1cc2cc(-c3cn([C@H]4CN5CCC4CC5)nn3)ccc2o1', 'Ki', 1);

Request: Please give measured Ki of the following entry: COc1cccc(-c2cn([C@H]3CN4CCC3CC4)nn2)c1
Response: 1
